# Test system: S180 ascites
# procedureDetails: Anti-Tumor Screening; S180 ascites in mice (% increase in life span, survivors)
# Type: in vivo, female CFW Swiss mice
# experimentalConditions: 50 mg/kg
measurementLabel: % ILS

Below: 2 molecules and their reported % ILS.
molecule	% ILS
O=C([O-])C(=O)[O-].O=C([O-])C(=O)[O-].[K+].[K+].[Pd+2] [K2 [Pd(Oxalate)2], reference compound]	-7%
O=C([O-])C(O)C(=O)[O-].O=C([O-])C(O)C(=O)[O-].[K+].[K+].[Pd+2] [Example 4, Potassium Bis(Tartronato)palladate(II)]	11%

Fill: % ILS (S180 ascites) for this molecule O=C([O-])c1ccccc1C(=O)[O-].O=C([O-])c1ccccc1C(=O)[O-].[K+].[K+].[Pd+2] [Example 5, Potassium Bis(phthalato)palladate(II)]
18%

Fill in % ILS for CC(C(=O)[O-])C(=O)[O-].CC(C(=O)[O-])C(=O)[O-].[K+].[K+].[Pd+2] tested with S180 ascites.
2%
